# STUDY TARGET: T1, human CD26-derived 13 mer peptide 18 (human)
# T1 peptide: EYGNSSVFLENST
# MEASUREMENT DESCRIPTION: peptide microarray
Listed next: entries and their corresponding Mean Signal Value.
// return a plain number; no unit text

Answered examples (2):
BINDER	PARAMETER MEASURED	REPORTED RESULT
rhuMAb 412 (antibody, human IgG1, V domains shown, X385 VH and X380 VL with human IgG1 and human kappa constant regions; also called X412) VH: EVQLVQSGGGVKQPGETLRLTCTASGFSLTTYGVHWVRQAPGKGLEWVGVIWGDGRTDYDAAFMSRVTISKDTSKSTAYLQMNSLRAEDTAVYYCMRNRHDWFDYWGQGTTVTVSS VL: EIEMTQSPSSLSVSAGERATISCSASQDIRNSLNWYQQKPGQAPRLLIYYSSNLHTGVPARFSGSGSGTDFTLTISRLEPEDVAIYYCQQSNKLPLTFGSGTKVEIKR	Mean Signal Value	0
rhuMAb 420 (antibody, human IgG1, V domains shown, X420 VH and X380 VL with human IgG1 and human kappa constant regions; also called X420 (IgG1)) VH: EVQLVESGGGVKQPGETLRLTCTASGFSLSTYGVHWVRQAPGKGLEWVGVIWGDGRTDYDAAFMSRVTISKDTSKSTVYLQMNSLRAEDTAVYYCMRNRHDWFDYWGQGTTVTVSS VL: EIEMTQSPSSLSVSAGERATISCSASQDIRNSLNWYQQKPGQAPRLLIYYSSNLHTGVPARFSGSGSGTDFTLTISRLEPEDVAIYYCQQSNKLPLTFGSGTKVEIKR	Mean Signal Value	0

Now consider the entry below.
Query string: Bench note: what Mean Signal Value did rhuMAb 409 (antibody, human IgG1, V domains shown, CM03 VH and VL with human IgG1 heavy chain constant region and human kappa constant region; also called X409) VH: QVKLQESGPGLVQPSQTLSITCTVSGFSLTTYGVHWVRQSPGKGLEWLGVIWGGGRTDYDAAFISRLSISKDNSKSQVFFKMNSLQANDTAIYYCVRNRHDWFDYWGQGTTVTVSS VL: DIQMTQSPSSLSASLGDRVTITCSASQGIRNSLNWYQQKPDGAVKLLIYYSSNLHSGVPSRFSGSGSGTDFSLTISNLEPEDIATYYCQQSIKLPFTFGSGTKLEIKR show?
Result string: 0

Reference source: patent US20070105771A1
